Reference source for all entries: patent US20110124715A1

- System: HSV-1 (KOS)
- ASSAY DETAILS: HSV-1 infection ELISA assay
- Assay type: cell-based, herpes simplex virus
- RUN PARAMETERS: Table 1; 50% inhibition of HSV replication relative to control infected cells
pEC50: −log10 of the molar value.
MEASUREMENT KIND: pEC50

In the examples that follow, each entry is paired with its recorded pEC50.
5367 (TTGGGGTTGGGGTTGGGGTTGGGGG; phosphodiester, further chemistry not given here) [compound 5367]
< 5.40
5544 (GGGTGGGTATAG; phosphorothioate, further chemistry not given here) [compound 5544]
< 5.52
5590 (GGGGTTGGGG; phosphodiester, further chemistry not given here) [compound 5590]
< 5.52
5650 (TTGGGGTTGGGGTTGGGGTT; phosphodiester, further chemistry not given here) [compound 5650]
< 5.52
5649 (TTGGGGTTGGGGTTGGGGTTGGGG; phosphodiester, further chemistry not given here) [compound 5649]
< 5.52

Please look up its pEC50: 5670 (DNA GGGGTTGGGGTTGGGGTTGGGG; unmodified DNA) [compound 5670]
< 5.52
